# experimental_target: ErbB-4 receptor-Ig fusion (human) (UniProt Q15303)
# method_description: displacement of 125I-HRG-β1 177-244 from ErbB-4-Ig
pEC50: −log10 of the molar value.
Label Condition met when pEC50 >= 7; otherwise Condition not met.

[[record]]
binder = "recombinantly produced HRG-β1 177-244 (ligand) SHLVKCAEKEKTFCVNGGECFMVKDLSNPSRYLCKCPNEFTGDRCQNYVMASFYKHLGIEFMEAEELY"
category = "Condition met"

[[record]]
binder = "Trx-HRG-β1 146-244 R207A fusion (ligand) DDDDKAYVSSESPIRISVSTEGANTSSSTSTSTTGTSHLVKCAEKEKTFCVNGGECFMVKDLSNPSAYLCKCPNEFTGDRCQNYVMASFYKHLGIEFMEAEELY"
category = "Condition met"

[[record]]
binder = "Trx-HRG-β1 146-244 P205A fusion (ligand) DDDDKAYVSSESPIRISVSTEGANTSSSTSTSTTGTSHLVKCAEKEKTFCVNGGECFMVKDLSNASRYLCKCPNEFTGDRCQNYVMASFYKHLGIEFMEAEELY"
category = "Condition met"

[[record]]
binder = "Trx-HRG-β1 146-244 G194A fusion (ligand) DDDDKAYVSSESPIRISVSTEGANTSSSTSTSTTGTSHLVKCAEKEKTFCVNGAECFMVKDLSNPSRYLCKCPNEFTGDRCQNYVMASFYKHLGIEFMEAEELY"
category = "Condition not met"

[[record]]
binder = "Trx-HRG-β1 146-244 G218A fusion (ligand) DDDDKAYVSSESPIRISVSTEGANTSSSTSTSTTGTSHLVKCAEKEKTFCVNGGECFMVKDLSNPSRYLCKCPNEFTADRCQNYVMASFYKHLGIEFMEAEELY"
category = "Condition not met"

[[record]]
binder = "TH-WT (thioredoxin fused at its C-terminus to wild-type HRG-β1 146-244) (ligand) DDDDKAYVSSESPIRISVSTEGANTSSSTSTSTTGTSHLVKCAEKEKTFCVNGGECFMVKDLSNPSRYLCKCPNEFTGDRCQNYVMASFYKHLGIEFMEAEELY"
category = "Condition met"

